The measured values listed here are drawn from PubChem BioAssay (NCATS).

test: Quantitative High-Throughput drug screen in 47 multiple myeloma cell lines against the NCATS MIPE library collection: U266_ATCC cell viability assay (AID 1919864); conditions: U266 myeloma viability, CellTiter-Glo ATP luminescence, 48 h; series mostly up to 45.8 µM; note: nearly all actives have a fitted effect of over 35% in size; note: potency is the fitted concentration of half-maximal effect
Results filed as inconclusive are left out. Active and inactive are the calls of the source. Calls come from the whole dose curve; as a rule, active = well fitted cell-killing curve with a large enough effect; inconclusive = small, poorly fitted or top-dose-only effect, or effect the other way; inactive = no such curve, though single readings can be large or run the other way.
endpoint: Potency

Recorded Potency, per entry:
compound=OC[C@H]1O[C@@H](Oc2cc(O)cc(C=Cc3ccc(O)cc3)c2)[C@H](O)[C@@H](O)[C@H]1O endpointresult=inactive
compound="CC(C(=O)O)c1ccc(-c2ccccc2)c(F)c1 (stereo not given)" endpointresult="20.9 µM (active)"
compound=Nc1nc(F)nc2c1ncn2[C@@H]1O[C@H](COP(=O)(O)O)[C@@H](O)[C@H]1O endpointresult="0.526 µM (active)"
compound="C=C1C(=O)OC2C=C(C)CCC=C(C)CCC12 (stereo not given)" endpointresult="20.9 µM (active)"
compound="Cc1nnc(C(C)C)n1C1C[C@H]2CC[C@@H](C1)N2CC[C@H](NC(=O)C1CCC(F)(F)CC1)c1ccccc1 (stereo not given in full)" endpointresult="11.8 µM (active)"
compound=Oc1ccc(C2=Cc3ccc(O)cc3OC2)cc1 endpointresult="5.9 µM (active)"

List reported Potency for each of these compounds:
1. COCCOc1nc(-c2ccc(Cl)c(Cl)c2)n(-c2ccc(NC(=O)CCl)cc2)n1
2. Cc1ccc(Nc2cc(-c3cccc(N4C(=O)c5ccccc5C4=O)c3)ncn2)cc1NS(C)(=O)=O
3. Cc1c[nH]c(C=C2C(=O)Nc3ccccc32)c1CCC(=O)O
4. COc1cc2nc(-c3ccc(N4CCN(C)CC4)cc3)nc(NCCN3CCOCC3)c2cc1OC

1: 26.4 µM (active); 2: 23.5 µM (active); 3: inactive; 4: 0.0209 µM (active)

---

Experiment: Quantitative High-Throughput drug screen in 47 multiple myeloma cell lines against the NCATS MIPE library collection: RPMI8226_ATCC cell viability assay (AID 1919871); note: nearly all actives have a fitted effect of over 30% in size
Conditions: RPMI8226 myeloma viability, CellTiter-Glo ATP luminescence, 48 h; series mostly up to 45.8 µM
Text: PI: Beverly A. Mock Ph.D. Laboratory of Cancer Biology and Genetics, Center for Cancer Research, National Cancer Institute, National Institute of Health, Bethesda, Maryland […] 5; Detector; 425V; Luminescence; Viewlux PerkinElmer. […] 1. […] Briefly, the corresponding myeloma cell lines were screened in 1,536-well plates with 500 cells, 5-uL per well for inhibition of cell viability (assessed by measuring ATP levels with CellTiterGlo). […]
Results filed as inconclusive are left out. Active and inactive are the calls of the source. The call rests on the fitted dose curve; in most records, active means well fitted cell-killing curve with a large enough effect; inconclusive means small, poorly fitted or top-dose-only effect, or effect the other way; inactive means no such curve, though single readings can be large or run the other way.
Please reply with one of these outcomes: yes (1) for active, no (0) for inactive

Below, 5 compounds whose answers are already recorded.
compound="CNC1CCC(N(Cc2cccc(-c3ccncc3)c2)C(=O)c2sc3c(F)ccc(F)c3c2Cl)CC1 (stereo not given)" grouplabel="yes (1)"
compound=CC[C@H]1OC(=O)[C@H](C)[C@@H](O[C@H]2C[C@@](C)(OC)[C@@H](O)[C@H](C)O2)[C@H](C)[C@@H](O[C@@H]2O[C@H](C)C[C@H](N(C)C)[C@@H]2O)[C@](C)(O)C[C@@H](C)CN(C)[C@H](C)[C@@H](O)[C@]1(C)O grouplabel="yes (1)"
compound=CCCCCN(C)CCC(O)(P(=O)(O)O)P(=O)(O)O grouplabel="no (0)"
compound=NS(=O)(=O)c1ccc(NC2=CC(=O)c3ccccc3C2=O)cc1 grouplabel="no (0)"
compound="O=c1c(-c2ccc(O)cc2)coc2cc(OC3O[C@H](CO)[C@H](O)[C@H](O)[C@H]3O)cc(O)c12 (stereo not given in full)" grouplabel="yes (1)"

Write down the call the test reported for this compound. Item: CC(C)OC(=O)C(C)(C)Oc1ccc(C(=O)c2ccc(Cl)cc2)cc1
yes (1)

Write down the call the test reported for this compound. Item: N#CC(=C(N)Sc1ccccc1N)C(C#N)=C(N)Sc1ccccc1N
yes (1)

Write down the call the test reported for this compound. Item: CC[C@@]1(O)C[C@H](O[C@H]2C[C@H](N(C)C)[C@H](O[C@H]3C[C@H](O)[C@H](O[C@H]4CCC(=O)[C@H](C)O4)[C@H](C)O3)[C@H](C)O2)c2c(cc3c(c2O)C(=O)c2c(O)cccc2C3=O)[C@@H]1C(=O)OC
yes (1)

Write down the call the test reported for this compound. Item: N[C@@]1(C(=O)O)CS(=O)(=O)[C@H]2[C@H](C(=O)O)[C@H]21
no (0)

Write down the call the test reported for this compound. Item: COc1cccc2c1CCCC2CCCN1CCN(C2CCCCC2)CC1 (stereo not given)
yes (1)

Write down the call the test reported for this compound. Item: COc1cc(Nc2ncc(F)c(Nc3ccc4c(n3)NC(=O)C(C)(C)O4)n2)cc(OC)c1OC
yes (1)

Write down the call the test reported for this compound. Item: CO[C@H]1C[C@@H]2CC[C@@H](C)[C@@](O)(O2)C(=O)C(=O)N2CCCC[C@@H]2C(=O)O[C@H]([C@H](C)C[C@@H]2CC[C@H](OP(C)(C)=O)[C@H](OC)C2)CC(=O)[C@H](C)C=C(C)[C@@H](O)[C@@H](OC)C(=O)[C@H](C)C[C@H](C)C=CC=CC=C1C
no (0)

Write down the call the test reported for this compound. Item: O=C(O)c1ccc(-c2c[nH]c3ncc(-c4ccccc4)cc23)cc1C1CCCC1
no (0)

Write down the call the test reported for this compound. Item: CCC(=O)O[C@]1(C(=O)CO)CC[C@H]2[C@@H]3CCC4=CC(=O)CC[C@]4(C)[C@@H]3CC[C@@]21C
no (0)

Write down the call the test reported for this compound. Item: O=C(NCc1ccccc1)c1csc(Nc2ccncn2)n1
yes (1)

---

experiment: qHTS Screen of the MIPE 4.0 Collection Against Ewings Sarcoma (TC71) (AID 1259253); settings: TC71 Ewing sarcoma viability, CellTiter-Glo, 48 h; series mostly up to 45.8 µM; note: nearly all actives have a fitted effect of over 40% in size
Records with an inconclusive call do not appear. The source made the active and inactive calls. The call rests on the fitted dose curve; in most records, active means well fitted inhibition curve with a large enough effect; inconclusive means small, poorly fitted or top-dose-only effect; inactive means no such curve, though single readings can be large or run the other way.
Please reply with one of these outcomes: Yes for active, No for inactive

Below, 6 molecules whose answers are already recorded.
molecule=C[N+](C)(C)CC(=O)O grouplabel=No
molecule=CO[C@H]1C=CO[C@@]2(C)Oc3c(C)c(O)c4c(O)c(c5c(c4c3C2=O)NC2(CCN(CC(C)C)CC2)N=5)=NC(=O)C(C)=CC=C[C@H](C)[C@H](O)[C@@H](C)[C@@H](O)[C@@H](C)[C@H](OC(C)=O)[C@H]1C grouplabel=No
molecule=O=C1C(Cl)=C(NCCN2CCOCC2)C(=O)c2ncccc21 grouplabel=Yes
molecule=CC(C)OC(=O)CCCC=CC[C@@H]1[C@H](C=C[C@@H](O)COc2cccc(C(F)(F)F)c2)[C@H](O)C[C@@H]1O grouplabel=Yes
molecule=CCn1cc(C(=O)O)c(=O)c2ccc(C)nc21 grouplabel=No
molecule="C[C@]12CC[C@@H]3c4ccc(O)cc4C[C@@H](CCCCCCCCCS(=O)CCCC(F)(F)C(F)(F)F)[C@H]3[C@H]1CC[C@H]2O (stereo partly drawn)" grouplabel=Yes

Write down the call the test reported for this molecule. Item: CC(C)C(=O)Oc1ccc(CO)cc1[C@H](CCN(C(C)C)C(C)C)c1ccccc1
No

Write down the call the test reported for this molecule. Item: CCOC1OC(=O)C[C@H]1NC(=O)[C@@H]1CCCN1C(=O)[C@@H](NC(=O)c1ccc(N)c(Cl)c1)C(C)(C)C (stereo partly drawn)
No

---

assay: Identifying Small Molecule Inhibitors of Pancreatic Cancer Stem Cells (A278, Adherent) (AID 1259361); details: series mostly up to 46.1 µM;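 note: viability read after 48 h compound exposure; nearly all actives have a fitted effect of over 35% in size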
Inconclusive results are not listed. Activity calls are given as the source filed them. Calls come from the whole dose curve; as a rule, active = well fitted cell-killing curve with a large enough effect; inconclusive = small, poorly fitted or top-dose-only effect; inactive = flat fitted curve, though single readings scatter.
Please reply with one of these outcomes: y for active, n for inactive

molecule=O=C(O)c1ccc(-c2cc3cccnc3c(-c3ccc4nonc4c3)n2)cc1 grouplabel=n

Write down the call the test reported for this molecule. Item: CN1CCN(CCOc2cc(OC3CCOCC3)c3c(Nc4c(Cl)ccc5c4OCO5)ncnc3c2)CC1
y

Write down the call the test reported for this molecule. Item: NC(CO)(CO)CCc1ccc(Sc2cccc(OCc3ccccc3)c2)cc1Cl
y

Write down the call the test reported for this molecule. Item: Clc1ccc(-c2nc3sccn3c2C=NOCc2ccc(Cl)c(Cl)c2)cc1
n

Write down the call the test reported for this molecule. Item: O=C(O)CCC1CCC(c2cc(F)ccc2F)(S(=O)(=O)c2ccc(Cl)cc2)CC1 (centres undefined)
n

Write down the call the test reported for this molecule. Item: CC(C)(C)C(=O)Oc1ccc2c(c1)nc(NC(=O)c1cccc([N+](=O)[O-])c1)n2CCCO
y

---

test: Quantitative High-Throughput drug screen in 47 multiple myeloma cell lines against the NCATS MIPE library collection: H1112_PLB cell viability assay (AID 1918967; note: nearly all actives have a fitted effect of over 30% in size); conditions: H1112 myeloma cells viability, ATP luminescence, 48 h; series mostly up to 45.8 µM
Results filed as inconclusive are left out. Active and inactive are the calls of the source. Calls come from the whole dose curve; as a rule, active = well fitted cell-killing curve with a large enough effect; inconclusive = small, poorly fitted or top-dose-only effect, or effect the other way; inactive = no such curve, though single readings can be large or run the other way.
Please reply with one of these outcomes: T for active, F for inactive

structureassmiles=Cc1ccc(C(=O)Nc2cccc(C(F)(F)F)c2)cc1Nc1nc(-c2cccnc2)nc2c1cnn2C grouplabel=T
structureassmiles=C[C@H](NC(=O)C(=O)Nc1ccccc1C(C)(C)C)C(=O)N[C@@H](CC(=O)O)C(=O)COc1c(F)c(F)cc(F)c1F grouplabel=F
structureassmiles=CN1C[C@H]2c3ccccc3Oc3ccc(Cl)cc3[C@@H]2C1 grouplabel=F
structureassmiles=NS(=O)(=O)c1cccc2c1C(=O)c1cccc(O)c1C2=O grouplabel=T
structureassmiles=CCOC(CN1C(=O)[C@](CC(=O)Nc2ccc(C)cc2)(NC(=O)Nc2ccc(C)cc2)c2ccccc21)OCC grouplabel=F
structureassmiles=O=C1C(Cl)=C(NCCN2CCOCC2)C(=O)c2ncccc21 grouplabel=T

Write down the call the test reported for this compound. Item: O=C1NC(=O)C(=Cc2ccc3c(c2)OC(F)(F)O3)S1
T

Write down the call the test reported for this compound. Item: O=C(O)[C@H]1O[C@H](Oc2cc3oc(-c4ccccc4)cc(=O)c3c(O)c2O)[C@H](O)[C@@H](O)[C@H]1O
F

Write down the call the test reported for this compound. Item: COc1ccc(-c2coc3cc(O)ccc3c2=O)cc1
F
